% Efficacy (in vitro Kasumi cell killing assay, CellTiter-Glo) reference
- targetOrSystem: CD117 on Kasumi-1 cells, P10721
- protocolDetails: cell-based or functional assay
Give just the number in %; leave the unit off.

Worked cases, % Efficacy (in vitro Kasumi cell killing assay, CellTiter-Glo) given:
1) CK6-PBD (anti-CD117 antibody CK6 with Fc modification S239C conjugated to PBD) (antibody, DAR 1.7, V domains shown) VH: QVQLVQSGAAVKKPGESLKISCKGSGYRFTSYWIGWVRQMPGKGLEWMGIIYPGDSDTRYSPSFQGQVTISAGKSISTAYLQWSSLKASDTAMYYCARHGRGYNGYEGAFDIWGQGTMVTVSS VL: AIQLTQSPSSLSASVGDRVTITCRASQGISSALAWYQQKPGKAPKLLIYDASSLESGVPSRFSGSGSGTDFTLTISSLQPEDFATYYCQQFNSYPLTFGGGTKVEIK ... 60.7
2) CK6-PNU (anti-CD117 antibody CK6 with Fc modification S239C conjugated to PNU) (antibody, DAR 1.4, V domains shown) VH: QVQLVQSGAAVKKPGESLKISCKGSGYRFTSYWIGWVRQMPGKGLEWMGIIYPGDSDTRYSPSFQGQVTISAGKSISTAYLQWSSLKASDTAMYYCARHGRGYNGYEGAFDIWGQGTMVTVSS VL: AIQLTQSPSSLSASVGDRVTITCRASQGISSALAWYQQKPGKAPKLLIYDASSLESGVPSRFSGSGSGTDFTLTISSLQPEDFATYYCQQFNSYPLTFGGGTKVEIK ... 85.7
3) CK6-DM (anti-CD117 antibody CK6 with Fc modification S239C conjugated to duocarmycin) (antibody, DAR 1.65, V domains shown) VH: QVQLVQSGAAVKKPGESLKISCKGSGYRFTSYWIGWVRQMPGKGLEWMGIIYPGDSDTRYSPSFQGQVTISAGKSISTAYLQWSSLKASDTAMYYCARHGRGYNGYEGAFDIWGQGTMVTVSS VL: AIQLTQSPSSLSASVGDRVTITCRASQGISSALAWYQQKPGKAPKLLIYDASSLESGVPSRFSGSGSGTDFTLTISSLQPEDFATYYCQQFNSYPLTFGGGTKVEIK ... 0
4) CK6-SET0207 (CK6 with Fc modifications D265C H435A) (antibody, V domains shown) VH: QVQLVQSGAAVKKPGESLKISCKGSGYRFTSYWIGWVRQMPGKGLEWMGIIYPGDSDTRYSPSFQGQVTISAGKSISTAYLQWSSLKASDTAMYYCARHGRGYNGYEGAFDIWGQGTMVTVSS VL: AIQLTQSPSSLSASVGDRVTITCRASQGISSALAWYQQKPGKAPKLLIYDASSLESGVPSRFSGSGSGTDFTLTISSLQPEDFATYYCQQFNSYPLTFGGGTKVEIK ... 0

Now consider the entry below.
Query block: Give the measured % Efficacy (in vitro Kasumi cell killing assay, CellTiter-Glo) of CK6-D4 (anti-CD117 antibody CK6 with Fc modification S239C conjugated to calicheamicin) (antibody, DAR 1.72, V domains shown) VH: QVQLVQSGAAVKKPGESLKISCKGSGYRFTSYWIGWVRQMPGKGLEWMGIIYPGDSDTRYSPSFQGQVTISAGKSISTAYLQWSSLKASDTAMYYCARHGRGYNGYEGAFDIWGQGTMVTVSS VL: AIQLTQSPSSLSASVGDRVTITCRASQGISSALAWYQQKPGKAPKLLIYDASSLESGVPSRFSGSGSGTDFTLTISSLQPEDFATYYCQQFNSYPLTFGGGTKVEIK .
Result block: 0

The reported measurements were obtained from patent US20220226493A1.
